Taken from PubChem BioAssay AID652109.

- Test Target: Serine/threonine-protein phosphatase PP1-alpha catalytic subunit (Homo sapiens)
- Assay Comment: inhibition of PP1alpha catalytic activity – biochemical, OMFP substrate, fluorescence, late-stage follow-up (AID 652109)
- Assay Conditions: PP1 dephosphorylation of OMFP, at 6.7 µM, hits give high values
Attribute Measured: inhibition (%)
The reply should be a number in %, with the unit left off.

Ask: Please tell me: inhibition of N#Cc1c(N2CCCC(O)C2)nc(N)c2c(N)nc3c(c12)CC(=O)N3C12CC3CC(CC(C3)C1)C2 (stereo not drawn) , system Serine/threonine-protein phosphatase PP1-alpha catalytic subunit (Homo sapiens)?
Reply: 8.91

Ask: Next up: O=C(NC1(O)C(=O)c2ccccc2C1=O)c1ccccc1
Reply: -2.88

Ask: Query Oc1ccccc1/C=N/Nc1cc(N2CCCC2)nc(N2CCCC2)n1 next
Reply: 4.78

Ask: Subsequent entry: COc1ccc(Sc2nc(-c3ccccn3)ncc2OC)cc1
Reply: 71.2

Ask: // query: Cc1cc(C)c(S(=O)(=O)/N=C2\C=C(Sc3ncn[nH]3)C(=O)c3ccccc32)cc1C
Reply: 5.9

Ask: Param item: COc1ccc(CN2C(=O)Cc3c2nc(N)c2c(N)nc(N4CCCCC4)c(C#N)c32)cc1
Reply: 6.16

Ask: What do we get for N#Cc1c(-c2ccc(Cl)cc2)cc(-c2cccs2)nc1SCC(=O)O ?
Reply: 46.6

Ask: Next up: O=C(O)C1C2CCC(O2)C1C(=O)NC1CCCCC1 (stereo not drawn)
Reply: 25

Ask: Can you handle COc1ccc(Cl)cc1C(=O)Nc1cccc(-c2ccc3nncn3n2)c1 next?
Reply: 60.4

Ask: Entry O=C(NC1(O)C(=O)c2ccccc2C1=O)c1ccc(C(F)(F)F)cc1 please
Reply: 6.8

Ask: Repeat for the following molecule: CCOC(=O)c1cnc(-n2nc(C)cc2C)nc1NC1CCCCC1
Reply: 57.6

Ask: Ok, now Clc1ccc(-n2nnnc2-c2cnc(-c3ccccn3)nc2-c2cccs2)cc1
Reply: 67.4

Ask: Then this molecule: CCOC(=O)c1cnc(-n2nc(C)cc2C)nc1NCCc1ccccc1
Reply: 65.2

Ask: Also O=C(O)c1cc(-c2ccc(Cl)c(Cl)c2)n(-c2ccc(F)cc2)n1 ?
Reply: 57.1

Ask: Also c1ccc(-c2nccc(-c3ccc(-n4cnc5ccccc54)cc3)n2)nc1 ?
Reply: 62.4

Ask: // next record CCOC(=O)c1cnc(-n2nc(C)cc2C)nc1NCc1ccccc1
Reply: 58.3

Ask: Lookup CC(=O)C(C(C)=O)C1(O)C(=O)c2ccccc2C1=O
Reply: 0.756

Ask: Can you handle COc1cnc(-c2ccccn2)nc1Sc1ccc(F)cc1 next?
Reply: 52.5

Ask: Then CCOC(=O)c1sc(N2C(=O)C(O)=C(C(=O)c3ccco3)C2c2cccc([N+](=O)[O-])c2)nc1C (stereo not drawn) ?
Reply: 32.7

Ask: Subsequent entry: COc1cnc(-c2ccccn2)nc1Sc1ccc(C)cc1
Reply: 65.8

Ask: c1ccc(Nc2nc(-c3ccccn3)cs2)cc1 ?
Reply: 63.7

Ask: # iterate: COc1cnc(-c2ccccn2)nc1Sc1ccc(Cl)cc1
Reply: 53.2

Ask: Request: O=c1[nH]c(Nc2ccccc2)cc2ccccc12
Reply: 9.24

###

- Test Target: Serine/threonine-protein phosphatase PP1-alpha catalytic subunit (Homo sapiens)
- Assay Comment: inhibition of PP1alpha catalytic activity – biochemical, OMFP substrate, fluorescence, late-stage follow-up (AID 652109)
- Assay Conditions: PP1 dephosphorylation of OMFP, at 6.7 µM
Calls of active or inactive are those of the source. The rule behind the calls is not given here.
Pick one and only one: active, inactive

Ask: Give the logged outcome of this assay for the following compound: COc1ccccc1Sc1nc(-c2ccccn2)ncc1OC
Reply: active

Ask: Follow-up entry: O=C(O)c1cc(-c2ccc(Cl)cc2)n(-c2cccc(Cl)c2)n1
Reply: active

Ask: Please do the same for CCCCn1c(NC(=O)c2ccco2)c(C(=O)OCC)c2nc3ccccc3nc21 as well.
Reply: inactive

Ask: Let us now turn to COc1cnc(-c2ccccn2)nc1Oc1cccc(C(F)(F)F)c1
Reply: inactive

Ask: Again, but for Oc1cccc(/C=N/Nc2cc(N3CCCC3)nc(N3CCCC3)n2)c1
Reply: inactive

Ask: Continue with CCCCN(CC)c1nc(N)c2c(N)nc(OCC)cc2c1C#N
Reply: inactive

Ask: Now consider Cc1[nH]n(-c2ccccc2)c(=O)c1C(c1ccc([N+](=O)[O-])cc1)c1c(C)[nH]n(-c2ccccc2)c1=O and answer again.
Reply: inactive

Ask: Next compound: Cc1nnc(NC(=O)C2C3C=CC(O3)C2C(=O)O)s1 (stereo not drawn)
Reply: inactive

Ask: // repeat for COc1ccc2c(Cl)c(C(=O)N/N=C/c3ccc4c(c3)OCO4)sc2c1 and report
Reply: inactive

Ask: Same question, COc1ccc(NC(=O)C2C3CCC(O3)C2C(=O)O)c(OC)c1 (stereo not drawn) this time
Reply: active

Ask: Same read-out for COc1cnc(-c2ccccn2)nc1Sc1ccccc1Cl ?
Reply: active

Ask: What do we get for COc1cnc(-c2ccccn2)nc1Sc1ccccc1 ?
Reply: active

Ask: Same lookup for Nc1cc2nsnc2cc1Br , please.
Reply: inactive

Ask: Note, next up: CCOC(=O)C1=C(C)OC2(O)c3ccccc3C(=O)C12O (stereo not drawn)
Reply: inactive

Ask: Again, but for CC(C)(CS(=O)(=O)[O-])NC(=O)CC[N+](C)(C)CCO
Reply: active

Ask: // same read-out, input: Oc1ccc(/C=N/Nc2cc(N3CCOCC3)nc(N3CCOCC3)n2)c(O)c1
Reply: inactive

Ask: Quick one: Cc1ccc(C(=O)NNc2cc(N3CCCC3)nc(N3CCCC3)n2)cc1
Reply: inactive

Ask: O=C(NC1(O)C(=O)c2ccccc2C1=O)c1c(Cl)cccc1Cl ?
Reply: inactive

###

- Test Target: Serine/threonine-protein phosphatase PP1-alpha catalytic subunit (Homo sapiens)
- Assay Comment: inhibition of PP1alpha catalytic activity – biochemical, OMFP substrate, fluorescence, late-stage follow-up (AID 652109)
- Assay Conditions: PP1 dephosphorylation of OMFP, at 6.7 µM, hits give high values
Attribute Measured: inhibition (%)
Expressed in %, but write only the number.

Ask: Given COc1cc(Br)c(C(=O)c2nccc3cc(OC)c(OC)cc23)cc1OC , state its recorded inhibition.
Reply: -4.95

Ask: Cool, now CCOC(=O)c1nn(-c2ccc(C)cc2)c(=O)c2c(N)scc12
Reply: 6.08

Ask: Subsequent entry: O=C(O)c1cc(-c2ccc(Cl)c(Cl)c2)n(-c2ccccc2)n1
Reply: 60.5

Ask: And then O=C(Nc1nc(-c2ccccn2)cs1)C1CC(=O)N(c2ccc3c(c2)OCCO3)C1 (stereo not drawn) , what is it?
Reply: 49.4

Ask: Can you check CCCN(CC1CC1)c1nc(N)c2c(N)nc(OC)cc2c1C#N next?
Reply: 3.83

Ask: Can you check CCOC(=O)c1cnc(-n2cc(C)cn2)nc1NCc1ccc2c(c1)OCO2 next?
Reply: 12.9

Ask: How about COc1cnc(-c2ccccn2)nc1Oc1cccc(Cl)c1 ?
Reply: 49.5

Ask: Proceed to O=S(=O)(Cc1cc(NCc2ccccc2)nc(-c2ccccn2)n1)c1ccccc1
Reply: 44.6

Ask: Moving on to COc1ccc(NC(=S)Nc2ccc3nsnc3c2)cc1
Reply: 2.7

Ask: Now consider COc1cnc(-c2ccccn2)nc1Sc1cccc(Cl)c1 and answer again.
Reply: 67.6

Ask: Another molecule to check: O=C1Nc2ccccc2N2CCCC12 (stereo not drawn)
Reply: -0.206

Ask: Same for CCOc1ccc(NC(=S)Nc2ccc3nsnc3c2)cc1
Reply: 4.8

Ask: # iterate: COc1ccc(Cn2c(N)c(C(=O)NCc3ccco3)c3nc4ccccc4nc32)cc1OC
Reply: 3.29

Ask: Request: CN1CCN(C(c2ccccn2)c2cc(Cl)c3cccnc3c2O)CC1 (stereo not drawn)
Reply: 74

Ask: Next molecule: COc1ccc(C(=O)c2nccc3cc(OC)c(OC)cc23)cc1OC
Reply: 0.984

Ask: And Cc1ccc(-n2nc(C(=O)O)cc2-c2ccc(Cl)cc2)cc1 ?
Reply: 56

Ask: Thanks! And O=C1CCCC2=C1C1(O)C(=O)c3ccccc3C1(O)O2 (stereo not drawn) ?
Reply: 3.09

Ask: Now consider CCOC(=O)c1sc2nc3c(SCC(=O)O)cc(C(=O)c4cc(F)ccc4O)cn3c(=O)c2c1C and answer again.
Reply: 67.8

Ask: Next molecule: COc1ccc(OCCCC(=O)Nc2nc(-c3ccccn3)cs2)cc1
Reply: 33.3

Ask: Entry to check: Cc1ccc(C(=O)NC2(O)C(=O)c3ccccc3C2=O)cc1C
Reply: -0.875

Ask: Now consider CCOC(=O)c1cnc(-n2nc(C)cc2C)nc1NC(C)c1ccccc1 (stereo not drawn) .
Reply: 68.8

Ask: Please give the result for CCn1c2ccccc2c2cc(NC(=O)COC(=O)c3ccc(NC(=O)CC#N)cc3)ccc21 too.
Reply: 47.2

Ask: Also need Nc1nc(-c2ccccn2)nc(N)c1Cc1ccc(Cl)cc1Cl , thanks.
Reply: 65.9
